measured target: Proto-oncogene tyrosine-protein kinase receptor Ret (Homo sapiens, UniProt P07949, V804L)
Sequence (P07949 29-1114 V804L limits assumed): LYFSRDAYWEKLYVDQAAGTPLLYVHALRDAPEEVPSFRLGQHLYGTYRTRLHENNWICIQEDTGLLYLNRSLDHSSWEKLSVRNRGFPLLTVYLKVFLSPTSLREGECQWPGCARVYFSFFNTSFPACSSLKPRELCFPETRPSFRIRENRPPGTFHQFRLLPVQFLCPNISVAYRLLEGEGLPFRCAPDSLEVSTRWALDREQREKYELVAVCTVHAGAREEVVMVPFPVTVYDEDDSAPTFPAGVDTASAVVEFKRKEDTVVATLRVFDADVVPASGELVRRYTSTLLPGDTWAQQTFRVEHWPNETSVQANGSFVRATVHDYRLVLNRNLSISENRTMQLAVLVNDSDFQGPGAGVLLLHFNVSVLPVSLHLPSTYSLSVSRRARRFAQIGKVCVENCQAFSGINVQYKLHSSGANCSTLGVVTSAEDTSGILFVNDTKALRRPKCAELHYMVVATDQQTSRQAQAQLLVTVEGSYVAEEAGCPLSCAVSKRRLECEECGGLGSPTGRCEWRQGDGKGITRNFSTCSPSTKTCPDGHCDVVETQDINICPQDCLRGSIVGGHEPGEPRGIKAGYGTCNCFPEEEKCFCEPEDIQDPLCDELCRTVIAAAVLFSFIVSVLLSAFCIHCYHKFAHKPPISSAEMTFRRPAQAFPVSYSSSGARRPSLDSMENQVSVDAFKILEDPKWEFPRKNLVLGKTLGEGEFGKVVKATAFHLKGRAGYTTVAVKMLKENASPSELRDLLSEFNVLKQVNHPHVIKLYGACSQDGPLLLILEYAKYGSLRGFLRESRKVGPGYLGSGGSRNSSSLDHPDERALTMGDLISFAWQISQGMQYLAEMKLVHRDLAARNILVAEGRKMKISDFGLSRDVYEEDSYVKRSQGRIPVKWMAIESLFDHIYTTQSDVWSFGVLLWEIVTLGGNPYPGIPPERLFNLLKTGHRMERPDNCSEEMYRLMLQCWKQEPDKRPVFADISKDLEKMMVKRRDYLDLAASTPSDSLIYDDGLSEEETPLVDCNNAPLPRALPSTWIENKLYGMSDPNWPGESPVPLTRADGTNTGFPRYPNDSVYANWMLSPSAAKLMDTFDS
measurement protocol: Inhibition of human Ret V804L mutant by millipore radiometric assay
assay endpoint: pIC50
Just the number, please; pIC50 means minus log10 of the concentration in mol/L.

Ask: Fill in pIC50 for record O=C(N[C@@H](c1ccccn1)C1CC1)c1ccc2[nH]nc(-c3ccc(N4[C@H]5CC[C@H]4CC(O)C5)cc3)c2c1 (stereo in doubt; 75)
Reply: 6.60

====

measurement protocol: Half life in human liver microsomes at 1 uM by LC-MS analysis
Assay type: ADME
assay endpoint: half-life at 1 µM

Ask: Kindly indicate its recorded half-life at 1 µM. Item: O=C(N[C@@H](c1ccccn1)C1CC1)c1ccc2[nH]nc(-c3ccc(N4[C@H]5CC[C@H]4CC(O)C5)cc3)c2c1 (stereo in doubt; 75)
Reply: > 1 h
